Each recorded value in this set is attributed to the supplement of paper PMC12042874.

Assay: amyloid nucleation score (Sup35N fusion, yeast selection) (log enrichment); library NNK2; higher = more nucleation; inactive = no reads after selection;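 further: zero at mode of non-aggregating sequences after 7 days selection at 30°C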
Measurement name: amyloid nucleation score

{"Substance": "ISQRSNASCVN", "Meas value": 0.966}
{"Substance": "VVAGEYGWTWFFKESLGLGM", "Meas value": -0.332}
{"Substance": "CTFTRLRSSAGSGIRQTPRL", "Meas value": 0.048}
{"Substance": "CMNTISVLSECASTRQTC", "Meas value": -0.068}
{"Substance": "NCYFKLSYEDMIRQCKRLNE", "Meas value": 3.44}
{"Substance": "VLEFFLKSSF", "Meas value": 3.1}
{"Substance": "VFYVTYTS", "Meas value": 5.76}
{"Substance": "IEIHALRPEQMFSVLGYGVQ", "Meas value": 0.146}
{"Substance": "TQFFFDFFE", "Meas value": 0.432}
{"Substance": "WGETVLYSDY", "Meas value": -1.01}
{"Substance": "ETGCLRARAVATGVLGRREK", "Meas value": 0.171}
{"Substance": "IEPSHFNGNSASWV", "Meas value": -0.184}
{"Substance": "CMLASSFMVVRSRLLSSRAM", "Meas value": 1.14}
{"Substance": "PWNLLGWLRRS", "Meas value": 0.108}
{"Substance": "FLVLFASVPKEVPLAYRVVK", "Meas value": -0.898}
{"Substance": "TFLGLS", "Meas value": 0.658}
{"Substance": "FYSTLFHFPYLVDQMYGPTI", "Meas value": -1.29}
{"Substance": "KSCCDGRNYDKIPRVRSSRT", "Meas value": 0.206}
